Data origin: patent US20180057505A1

biological target: PAR2 (HT-29 cells) (Homo sapiens); construct: host or cells: HT-29; assay: Ca FLIPR TETRA assay, ANTAGONIST mode, activator 8 μM SLIGKV; format: cell-based; details: HT-29 cells, activator 8 μM SLIGKV; maximal antagonist concentration per Method (A: 0.1, 1 or 2 μM; B: 50 μM)
Sequence (P55085 26-397): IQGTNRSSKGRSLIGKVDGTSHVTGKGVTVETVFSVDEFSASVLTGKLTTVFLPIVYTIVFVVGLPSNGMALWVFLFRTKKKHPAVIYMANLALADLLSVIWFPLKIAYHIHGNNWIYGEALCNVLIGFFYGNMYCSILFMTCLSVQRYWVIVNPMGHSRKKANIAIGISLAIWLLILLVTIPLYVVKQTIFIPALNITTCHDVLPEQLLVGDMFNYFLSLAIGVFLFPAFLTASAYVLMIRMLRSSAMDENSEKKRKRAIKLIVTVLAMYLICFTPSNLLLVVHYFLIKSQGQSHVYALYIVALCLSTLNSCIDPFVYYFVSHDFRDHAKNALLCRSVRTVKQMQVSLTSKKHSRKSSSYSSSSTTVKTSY
assay metric: IC50 (nM)

# example entries with known answers
CCC(CC)c1cc(-c2ccc(F)cc2)nc2cc(C(=O)N3CCNC(=O)C3(C)C)oc12	6.2
CC1(c2cc(-c3ccc(F)cc3)nc3cc(C(=O)N4CCN(C(=O)C5CCOCC5)CC4(C)C)oc23)CC1	4.5

(P) C[C@H]1CN(C(=O)c2cc3nc(-c4ccc(F)cc4)cc(C4(C)CC4)c3o2)CCN1C(=O)C1CCOCC1
(Q) CC(C)c1cc(-c2ccc(F)cc2)nc2cc(C(=O)N3CCN(C(=O)[C@H](O)CC(C)(C)C)[C@@H](C)C3)oc12
(R) CC1(c2cc(-c3ccc(F)cc3)nc3cc(C(=O)N4CCN(C(=O)C5(C#N)CC5)CC4(C)C)oc23)CC1
(S) CC1(C(=O)N2CCN(C(=O)c3cc4nc(-c5ccc(F)cc5)cc(C5(C)CC5)c4o3)C(C)(C)C2)CC1
q: Arrange these molecules by their IC50, starting with the largest number. Form entry: ranked labels (order as requested).
a: P, R, S, Q

----------
molecular target: PAR2 (HT-29 cells) (Homo sapiens); construct: host or cells: HT-29; test: Ca FLIPR TETRA assay, ANTAGONIST mode, activator 3.1 U/mL trypsin; format: cell-based; conditions: HT-29 cells; activator 3.1 U/mL trypsin; Method A: maximal concentration of antagonist 0.1, 1 or 2 μM
pIC50: −log10 of the molar value.
assay metric: pIC50

CC1(C)CCC(c2cc(C(C)(C)C)c3oc(C(=O)N4CCN(C(=O)[C@H]5CC[C@@](C)(C(=O)O)CC5)CC4(C)C)cc3n2)CC1	9.70
CC(C)[C@H](CC(=O)N1CCN(C(=O)c2cc3nc(-c4ccc(Cl)cc4)cc(C(C)(C)C)c3o2)C(C)(C)C1)C(=O)O	9.15
CC(C)(C)c1cc(-c2ccc(Cl)c(F)c2)nc2cc(C(=O)N3CCC(CC(=O)O)CC3(C)C)oc12 (centres unmarked)	9.70

(P) Cn1cnnc1N1CCN(C(=O)c2cc3nc(-c4ccc(Cl)c(F)c4)cc(C(C)(C)C)c3o2)C(C)(C)C1
(Q) CC(C)(C)c1cc(-c2ccc(Cl)c(F)c2)nc2cc(C(=O)N3CCC(C(=O)[C@H]4CC[C@@](C)(C(=O)O)CC4)CC3(C)C)oc12 (some centres unmarked)
q: So which one has the bigger pIC50 here, P or Q ? Your choice should be expressed through its label.
a: Q

(A) CC(C)(C)c1cc(N2CCC3(CC2)CC3)nc2cc(C(=O)N3CCN(C(=O)[C@H]4C[C@@](C)(O)C4)CC3(C)C)oc12
(B) CC(C)(C)c1cc(-c2ccc(Cl)cc2)nc2cc(C(=O)N3CCN(C(=O)[C@@H]4CC[C@H](C(=O)O)C4)CC3(C)C)oc12
(C) CC(C)(C)c1cc(-c2ccc(Cl)c(F)c2)nc2cc(C(=O)N3CCNC(=O)CC3(C)C)oc12
(D) CC(C)(C)c1cc(-c2ccc(Cl)cc2)nc2cc(C(=O)N3CCN(c4ncccn4)CC3(C)C)oc12
q: Could you please sort these 4 entries by pIC50 from high to low? Rank them, then answer with their labels in that order.
a: B, A, C, D

(A) CC(C)(C)c1cc(-c2ccc(Cl)c(F)c2)nc2cc(C(=O)N3CCN(c4cnccn4)C(=O)C3(C)C)oc12
(B) CC(CC(=O)N1CCN(C(=O)c2cc3nc(-c4ccc(Cl)c(F)c4)cc(C(C)(C)C)c3o2)C(C)(C)C1)C(=O)O (single isomer, unassigned) [Example I-513]
(C) Cc1ccc(C(=O)O)nc1C1CCN(C(=O)c2cc3nc(-c4ccc(Cl)cc4)cc(C(C)(C)C)c3o2)C(C)(C)C1 (centres unmarked)
q: Hey, quick one: sort these by pIC50, largest value first please. Respond with the label ranking, as requested.
a: C, B, A
(C: 9.22, B: 8.77, A: 8.43)

(a) Cc1nc(N2CCN(C(=O)c3cc4nc(-c5ccc(Cl)cc5)cc(C(C)(C)C)c4o3)C(C)(C)C2)oc1C(=O)O
(b) CC(C)(C)c1cc(-c2ccc(Cl)c(F)c2)nc2cc(C(=O)N3CCN(c4cccc(C(=O)O)n4)C(=O)C3(C)C)oc12
q: I'd appreciate it if you could identify which of a and b has the greater pIC50. Respond using the label that marks the chosen record.
a: b

----------
target: PAR2 (HT-29 cells) (Homo sapiens); construct: host or cells: HT-29; experiment: Ca FLIPR TETRA assay, ANTAGONIST mode, activator 8 μM SLIGKV; assay type: cell-based; conditions: HT-29 cells; activator 8 μM SLIGKV; Method A: maximal concentration of antagonist 0.1, 1 or 2 μM
assay metric: IC50 (nM)

(1) CC(C)(C)c1cc(-c2ccc(Cl)c(F)c2)nc2cc(C(=O)N3CCN(c4ccc(-c5nnn[nH]5)cn4)CC3(C)C)oc12
(2) CNC1CCN(C(=O)c2cc3nc(-c4ccc(Cl)c(F)c4)cc(C(C)(C)C)c3o2)C(C)(C)C1 (stereo not drawn)
(3) Cc1ccc(N2CCN(C(=O)c3cc4nc(-c5ccc(Cl)cc5)cc(C(C)(C)C)c4o3)C(C)(C)C2=O)nc1C(=O)O
q: Given 3 compounds, produce a descending ranking by IC50. Put the labels in the order asked and list them.
a: 2, 3, 1
(2: 1100 nM, 3: 13 nM, 1: 1 nM)

----------
target: PAR2 (HT-29 cells) (Homo sapiens); construct: host or cells: HT-29; assay: Ca FLIPR TETRA assay, ANTAGONIST mode, activator 8 μM SLIGKV; format: cell-based; conditions: HT-29 cells, activator 8 μM SLIGKV; maximal antagonist concentration per Method (A: 0.1, 1 or 2 μM; B: 50 μM)
pIC50: −log10 of the molar value.
assay metric: pIC50

CC(C)c1cc(-c2ccc(F)cc2)nc2cc(C(=O)N3CCN(C(=O)[C@H]4CCCO4)CC3(C)C)oc12	7.62
Cc1nnc(C(=O)N2CCN(C(=O)c3cc4nc(-c5ccc(Cl)cc5)cc(C(C)(C)C)c4o3)C(C)(C)C2)o1	8.55
CC(C)(C)c1cc(C2CCC(F)(F)CC2)nc2cc(C(=O)N3CCN(C(=O)[C@H]4C[C@@](C)(O)C4)CC3(C)C)oc12	7.66

(P) CC1(C)CCC(c2cc(C(C)(C)C)c3oc(C(=O)N4CCN(c5ccc(C(=O)O)cn5)C(=O)C4(C)C)cc3n2)CC1
(Q) CC1(C)CCC(c2cc(C(C)(C)C)c3oc(C(=O)N4CCN(c5cn[nH]c5)CC4(C)C)cc3n2)CC1
(R) CC(C)c1cc(-c2ccc(F)cc2)nc2cc(C(=O)N3CCN(C(=O)C(C)(C)O)CC3(C)C)oc12
(S) CC1(c2cc(-c3ccc(F)cc3)nc3cc(C(=O)N4CCN(C(=O)C5(O)CC5)CC4(C)C)oc23)CC1
q: Provide the items ranked by increasing pIC50. Labels, ranked as asked.
a: R, Q, S, P

(I) COC(=O)C1CC(C(=O)N2CCN(C(=O)c3cc4nc(-c5ccc(F)cc5)cc(C(C)(C)C)c4o3)C(C)(C)C2)C1 (stereo not drawn)
(II) CC(C)(C)c1cc(C2CCC(Cl)(Cl)CC2)nc2cc(C(=O)N3CCNC(=O)C3(C)C)oc12
q: Lab notebook, comparison: I versus II , higher pIC50 goes to which? Field: selected label. Fill in the label of the entry you choose.
a: I

----------
target: PAR2 (HT-29 cells) (Homo sapiens); construct: host or cells: HT-29; test: Ca FLIPR TETRA assay, ANTAGONIST mode, activator 8 μM SLIGKV; type: cell-based; conditions: HT-29 cells, activator 8 μM SLIGKV; maximal antagonist concentration per Method (A: 0.1, 1 or 2 μM; B: 50 μM)
assay metric: IC50 (nM)

// known answers, use as guide
CC(C)(C)c1cc(-c2ccc(F)cc2)nc2cc(C(=O)N3CCN(C(=O)C4CC(C(=O)O)C4)CC3(C)C)oc12 (centres unmarked)	17
CC(C)c1cc(-c2ccc(F)cc2)nc2cc(C(=O)N3CCN(C(=O)C(C)(C)O)C[C@H]3C)oc12	7600
Cc1nnc(C(=O)N2CCN(C(=O)c3cc4nc(-c5ccc(C(F)(F)F)cc5)cc(C(C)(C)C)c4o3)C(C)(C)C2)o1	16

(1) CC1(c2cc(-c3ccc(F)cc3)nc3cc(C(=O)N4CCN(C(=O)C5CCOC5)CC4(C)C)oc23)CC1 (centres unmarked)
(2) Cc1cc(-c2cc(C(C)(C)C)c3oc(C(=O)N4CCN(C(=O)c5nnc[nH]5)CC4(C)C)cc3n2)ccc1F
q: Lab log: flag the item ( 1 or 2 ) with the smaller IC50 figure. Choose, then provide that item's label.
a: 2
(2: 10 nM, 1: 48 nM)

(a) CC(C)c1cc(-c2ccc(F)cc2)nc2cc(C(=O)N3CCN(C(=O)[C@H](O)CC(C)(C)C)CC3(C)C)oc12
(b) CO[C@H](C)C(=O)N1CCN(C(=O)c2cc3nc(-c4ccc(F)cc4)cc(C(C)C)c3o2)C(C)(C)C1
(c) CC[C@@H](C)c1cc(-c2ccc(F)cc2)nc2cc(C(=O)N3CCNC(=O)C3(C)C)oc12
q: Arrange these molecules by their IC50, starting with the largest number. Please express your ranking as an ordered list of the labels.
a: b, c, a
(b: 62 nM, c: 2.5 nM, a: 1.4 nM)

(I) C[C@H]1CN(C(=O)c2cc3nc(-c4ccc(F)cc4)cc(C4(C)CC4)c3o2)CCN1C(=O)C1CCC1
(II) CC(C)c1cc(-c2ccc(F)cc2)nc2cc(C(=O)N3CCN(C(=O)C(C)(C)O)CC3)oc12
(III) CC(C)(C)c1cc(-c2ccc(F)cc2)nc2cc(C(=O)N3CCN(C(=O)CCC(=O)O)CC3(C)C)oc12
(IV) [2H]C([2H])([2H])N1CCN(C(=O)c2cc3nc(-c4ccc(Cl)cc4)cc(C(C)(C)C)c3o2)C(C)(C)C1=O
q: Endpoint returns the given molecules ordered by ascending IC50. Please, when replying, give the labels in the order that was requested.
a: IV, III, I, II

(A) CC(C)c1cc(-c2ccc(F)cc2)nc2cc(C(=O)N3CCN(C(=O)C4(O)CCOCC4)CC3)oc12
(B) CC(C)c1cc(-c2ccc(F)cc2)nc2cc(C(=O)N3CCN(C(=O)C4CC4(F)F)CC3(C)C)oc12 (single isomer, unassigned) [Example I-76]
q: Parameter check: reported IC50 is higher for which label, A or B ? Please reply using the label of the selected record.
a: A
(A: 10000 nM, B: 33 nM)
